- MEASUREMENT_TARGET: ScSla1-D1-D2
- METHOD_NOTES: SPOT peptide array binding signal intensity (averaged, normalized) (arbitrary units (background-subtracted, floor 0; scale differs between SH3 domains)); higher = stronger binding of the SH3 domain to the peptide
PROPERTY_LABEL: SPOT peptide array binding signal intensity

BINDER: FVLRYYILIPHEQWD
VALUE_OBSERVED: 7.5
--
BINDER: LLGRKRPVMERVVDI
VALUE_OBSERVED: 158
--
BINDER: HVRRSILALPLGVLL
VALUE_OBSERVED: 5
--
BINDER: SRSKPLPLTPNSKYN
VALUE_OBSERVED: 156
